Readings of IC50 for the listed compounds
System: P. falciparum NF54
procedure-details: antimalarial activity, P. falciparum NF54 parasites in vitro
Format: cell-based
experimental-context: Plasmodium falciparum; P. falciparum NF54 parasites in vitro; read-out: Antimalarial Activity IC50
Give your result in nM as a bare value.

| compound | quantitative-readout |
| --- | --- |
| OCc1ccc(C23CCCC(c4ccccc4)(CC2)OO3)cc1 (stereo not drawn) [Table 6, R = CH2 OH] | 81 |

Then this compound:
Record c1ccc(C23CCC(c4ccccc4)(CC2)OO3)cc1 [Table 5, R = H] . Reported IC50: 210

---

Recorded IC50 by entry
Test system: P. falciparum NF54
procedure-details: antimalarial activity, P. falciparum NF54 parasites in vitro
Assay type: cell-based
experimental-context: Plasmodium falciparum; P. falciparum NF54 parasites in vitro; read-out: Antimalarial Activity IC50
Write the value in nM as a bare number.

# example entries with known answers
| compound | experimental-readout | quantitative-readout |
| --- | --- | --- |
| FC(F)(F)c1ccc(C23CCC(c4ccc(C(F)(F)F)cc4)(CC2)OO3)cc1 | IC50 | 82 |
| Fc1ccc(C23C=CC(c4ccccc4)(CC2)OO3)cc1 (stereo not shown) | IC50 | 71 |
| C1=CC2(c3ccccc3)CCC1(c1ccccc1)OO2 | IC50 | 180 |

Kindly review the next compound as well.
Per the records, this compound ( Fc1ccc(C23C=CC(c4ccc(F)cc4)(CC2)OO3)cc1 ) has IC50 equal to 70
